- Assayed System: wild-type BTK (Homo sapiens, UniProt Q06187)
- Sequence (Q06187 whole entry): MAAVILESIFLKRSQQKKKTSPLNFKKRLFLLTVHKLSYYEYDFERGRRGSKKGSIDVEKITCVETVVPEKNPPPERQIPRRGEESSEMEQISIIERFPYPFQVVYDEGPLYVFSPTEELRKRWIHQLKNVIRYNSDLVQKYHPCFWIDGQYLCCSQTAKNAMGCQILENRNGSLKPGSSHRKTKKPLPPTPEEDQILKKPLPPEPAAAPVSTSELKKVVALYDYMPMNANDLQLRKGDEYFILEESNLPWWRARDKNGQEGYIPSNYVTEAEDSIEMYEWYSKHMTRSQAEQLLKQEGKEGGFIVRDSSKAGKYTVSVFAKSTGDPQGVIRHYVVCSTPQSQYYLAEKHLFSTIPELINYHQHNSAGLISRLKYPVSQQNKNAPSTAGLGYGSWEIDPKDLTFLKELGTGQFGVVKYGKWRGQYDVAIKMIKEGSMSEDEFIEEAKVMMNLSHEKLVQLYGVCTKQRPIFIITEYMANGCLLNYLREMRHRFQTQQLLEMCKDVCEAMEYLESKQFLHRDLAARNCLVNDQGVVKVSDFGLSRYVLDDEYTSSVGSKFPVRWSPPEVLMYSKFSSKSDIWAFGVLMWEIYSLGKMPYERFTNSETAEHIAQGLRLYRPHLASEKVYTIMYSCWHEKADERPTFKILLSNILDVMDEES
- Assay Method Text: BTK in vitro activity assay (ADP-Glo, poly-Glu:Tyr phosphorylation, TCEP)
- Measurement Conditions: read-out: inhibition of BTK activity
Value Type: inhibition at 0.1 µM

Answered examples (6):
Molecule	Recorded Result
CCCCS(=O)(=O)c1ncc(C(=O)N2CCCC(n3nc(-c4ccc(Oc5ccccc5)cc4)c4c(N)ncnc43)C2)cn1 (stereo in doubt)	40 to 60%
Nc1ncnc2c1c(-c1ccc(Oc3ccccc3)cc1)nn2[C@H]1CCCN(C(=O)c2ccnc(S(=O)(=O)c3ccccc3)n2)C1	40 to 60%
CS(=O)(=O)c1ncc(C(=O)N2CCCC(n3nc(-c4ccc(Oc5ccccc5)cc4)c4c(N)ncnc43)C2)cn1 (stereo in doubt)	80 to 90%
CS(=O)(=O)c1ncc(Cl)c(C(=O)N2CCCC(n3nc(-c4ccc(Oc5ccccc5)cc4)c4c(N)ncnc43)C2)n1 (stereo in doubt)	80 to 90%
Nc1ncnc2c1c(-c1ccc(Oc3ccccc3)cc1)nn2C1CCCN(C(=O)c2cnc(S(=O)(=O)c3ccccc3)nc2)C1 (stereo in doubt)	40 to 60%
CCCCS(=O)(=O)c1nccc(C(=O)N2CCC[C@H](n3nc(-c4ccc(Oc5ccccc5)cc4)c4c(N)ncnc43)C2)n1	40 to 60%

Please look at this molecule and report its inhibition at 0.1 µM: CS(=O)(=O)c1nccc(C(=O)N2CCCC(n3nc(-c4ccc(Oc5ccccc5)cc4)c4c(N)ncnc43)C2)n1 (stereo in doubt)
80 to 90%
